Ref: patent US9487506B2

Quick reference: pIC50 of the listed items.
STUDY TARGET: full-length human Mineralocorticoid Receptor (MR) (Homo sapiens)
Construct: host or cells: PathHunter CHO-K1 cells
Sequence (P08235 whole entry): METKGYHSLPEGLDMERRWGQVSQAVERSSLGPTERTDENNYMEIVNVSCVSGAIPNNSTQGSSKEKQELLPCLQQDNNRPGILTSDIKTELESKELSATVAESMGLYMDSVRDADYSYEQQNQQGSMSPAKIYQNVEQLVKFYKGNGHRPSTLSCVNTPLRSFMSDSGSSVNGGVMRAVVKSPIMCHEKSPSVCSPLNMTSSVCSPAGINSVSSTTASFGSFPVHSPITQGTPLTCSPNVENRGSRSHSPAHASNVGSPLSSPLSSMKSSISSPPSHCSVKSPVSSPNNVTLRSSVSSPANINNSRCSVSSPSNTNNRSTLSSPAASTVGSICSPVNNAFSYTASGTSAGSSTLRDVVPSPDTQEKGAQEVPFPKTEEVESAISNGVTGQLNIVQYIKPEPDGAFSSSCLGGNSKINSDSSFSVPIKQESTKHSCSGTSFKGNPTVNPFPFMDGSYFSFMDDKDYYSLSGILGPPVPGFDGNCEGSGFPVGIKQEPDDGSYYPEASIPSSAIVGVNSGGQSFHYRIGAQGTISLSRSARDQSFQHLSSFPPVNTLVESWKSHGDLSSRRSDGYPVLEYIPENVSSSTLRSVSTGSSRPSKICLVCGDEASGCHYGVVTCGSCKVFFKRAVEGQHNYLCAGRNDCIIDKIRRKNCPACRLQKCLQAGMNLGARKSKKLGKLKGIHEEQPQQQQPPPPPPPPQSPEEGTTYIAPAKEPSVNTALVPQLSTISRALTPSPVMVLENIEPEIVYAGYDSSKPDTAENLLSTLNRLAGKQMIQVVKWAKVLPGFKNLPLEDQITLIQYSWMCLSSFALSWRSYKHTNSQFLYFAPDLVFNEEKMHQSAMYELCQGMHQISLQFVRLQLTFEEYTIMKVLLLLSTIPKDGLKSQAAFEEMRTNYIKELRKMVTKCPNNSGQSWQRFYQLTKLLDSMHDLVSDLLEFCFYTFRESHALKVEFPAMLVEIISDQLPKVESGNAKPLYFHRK
PROTOCOL NOTES: human MR NH Pro assay (PathHunter Protein:Protein interaction assay), MR antagonist activity
Type: cell-based
EXPERIMENTAL PARAMETERS: PathHunter CHO-K1 cells overexpressing human MR; aldosterone 0.3 nM to about 1 nM; 6 hours at 37° C.; luminescence; read-out: IP (rating); IP is the inflection point for a given dose-response titration curve
pIC50: −log10 of the molar value.

| COMPOUND | pIC50 |
| --- | --- |
| CSCn1nc(C(CCC#N)c2ccc(Cl)cc2F)c2ccccc21 (centres unmarked) [Example 17D] | 5.22 to 6.30 |
| Fc1cc(Cl)ccc1Cc1n[nH]c2ccccc12 | 5.22 to 6.30 |
| CS(=O)(=O)Nc1cccc2c(C(CCC#N)c3ccc(Cl)cc3F)n[nH]c12 (single isomer, unassigned) | > 7.00 |
| CCCn1nc(C(CCC#N)c2ccc(Cl)cc2F)c2ccccc21 (centres unmarked) | 5.22 to 6.30 |
| Cc1noc(CCC(c2ccc(Cl)cc2F)c2n[nH]c3c(NS(C)(=O)=O)cccc23)n1 (centres unmarked) | 5.22 to 6.30 |
| CCC(CO)(c1ccc(Cl)cc1)c1n[nH]c2c(NS(C)(=O)=O)cccc12 (centres unmarked) | > 7.00 |
| Clc1ccc(Cc2nn(Cc3ccccc3)c3ccccc23)cc1 | 5.22 to 6.30 |
| CCn1nc(C(CCC#N)c2ccc(Cl)cc2F)c2ccccc21 (centres unmarked) | 5.22 to 6.30 |
